Molecular target: SARS-CoV-2 wild-type spike receptor-binding domain (SARS-CoV-2, WT (MN908947), UniProt P0DTC2)
quantityMeasured: binding result

>>> reportedresult("XGv420 (antibody, V domains shown) VH: QVQLQESGPGLVKPSGTLSLTCAVSGGSINSNNWWSWVRQPPGKGLEWIGEIYHNGNTNYNPSLKSRVTISVDTSKNQFSLRLSSVTAADTAVYYCARGDSLDWFDPWGQGTLVTVSS VL: QSALTQPASVSGSPGQSITISCTGTSSDVGSYNYVSWYQQLPGKAPKLMIYDVSNRPSGVSNRFSGSKSGNTASLTISGLQAEDEADYYCSSYTSSSTLVFGTGTKVTVL")
"binds"
>>> reportedresult("XGV016 (antibody, V domains shown) VH: QVQLVQSGTEVRKPGASVTVSCKASGYTFTTYHMHWVRRAPGQGLEWMGIIDPGTGGASYPQKFRGRVTLTRDTSTNTVYMELSSLRFQDTAIYYCARAEGSSWLGWFDPWGQGTLVTVSS VL: QSVLTQPPSASGTPGQRVSISCSGSSSNIGTNYVYWYQQLPGTAPKLLIYKNNQRPSGVPDRFSGSKSGTSASLAISGLRSEDEADYFCASWDNGLSGSGWVFGGGTKLTV")
"binds"
>>> reportedresult("XGv287 (antibody, V domains shown) VH: QVQLVQSGAEVKKPGASVKVSCKTSGYTFTTYYMHWVRQAPGQGLEWMGIINPSDGSTNYAQKFQDRVTLTKDTSTSTFYMELSSLTSEDTAKYYCARAEGSSWLGWFDPWGQGTLVTVSS VL: QSVLTQPPSASGTPGQRVTISCSGSNSNIGNHFVYWYQQLPGKAPKLLIYRNNQRPSGVPDRFSGSKSGTSASLAISGLRSEDEADYYCASWNDGLSASGWVFGGGTKLTV")
"binds"
